B1: library; numbered along this chain (parent)
chain: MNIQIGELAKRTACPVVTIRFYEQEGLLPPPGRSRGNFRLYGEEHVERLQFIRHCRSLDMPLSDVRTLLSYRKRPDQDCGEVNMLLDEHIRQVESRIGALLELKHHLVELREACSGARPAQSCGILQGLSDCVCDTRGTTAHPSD

variants of: B1; test: sfGFP reporter fluorescence (15 h) (µM FITC); higher = stronger transcriptional activation; details: library round: Round 0; ligand: 1 µM Pb
Below is a list of entries, each paired with its recorded sfGFP reporter fluorescence value.
PROPERTY: sfGFP reporter fluorescence

1) MNIQIGELAKRTACPVVTIRFYEQEGLLPPPGRSRVNFRLYGEEHVERLQFIRHCRSLDMPLSDVRTLLSYRKRPDQDCGEVNMLLDEHIRQVESRIGALLELKHHLVELREACSGARPAQSCGILQGLSDCVCDTRGTTAHPSD	0.0711
2) MNIQIGELAKRTACPVVTIRFYEQEGLLPPPGRSRGNFRLYGEEHVERLQFIRHCRSLDMPLSDVRTLLSYRKRPDQDCGEVLMLLDEHIRQVESRIGALLELKHHLVELREACSGARPAQSCGILQGLSDCVCDTRGTTAHPSD	0.07
3) MNIQIGELAKRTACPVVTIRFYEQEGLLPPPGRSRGNFRLYGEEHVERLQFIRHCRSLDMPLSDVRTLLSYRKRPDQDCGEVNMLLDEHIRQVESRIGALLELKHHLVELFEACSGARPAQSCGILQGLSDCVCDTRGTTAHPSD	0.0693
